Just for reference, PubChem BioAssay AID1159580 is where these values come from.

Assay: chemical genetic growth profiling, strain panel (AID 1159580);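 also: tested at 20 µM; growth read once vehicle control cultures reached saturation at 30 °C; 1 = growth at the plate median or of vehicle wells; lower values mean less growth of the strain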
Details: S. cerevisiae deletion strains, growth OD, locus YML124C, strain tub3, active compounds read low
Hit rate of the full screen: of about 5,500 compounds, about 2,000 (36%) were called active. Another 18% or so got no clear call; they are omitted. This is one part of the list.
endpoint-label: normalized growth

compound="CCOC(=O)CC(SP(=S)(OC)OC)C(=O)OCC (stereo not given)" result=1.01
compound="CSCCC(N)C(=O)NC(CC(C)C)C(=O)NC(Cc1ccccc1)C(=O)O (stereo not given)" result=0.995
compound="CCC(=O)OCC(=O)[C@@]1(OC(=O)CC)[C@@H](C)CC2C3CCC4=CC(=O)C=C[C@]4(C)C3(F)[C@@H](O)C[C@@]21C (stereo not given in full)" result=0.953
compound=CSc1nc(NC(C)C)nc(NC(C)C)n1 result=1.02
compound=NC(=O)c1ccc([N+](=O)[O-])cc1Cl result=0.984
compound=Cc1c(C(N)=O)cc([N+](=O)[O-])cc1[N+](=O)[O-] result=0.979
compound=COc1nc(NC(C)C)nc(NC(C)C)n1 result=1.02
compound="CC1=C2C(O)C(=O)OC3CC4C(C)(C)C(=O)C=C[C@]4(C)C(CC1)[C@]23C (stereo not given in full)" result=1.01
compound=O=C(O)CN(CCN(CC(=O)O)CC(=O)O)CC(=O)O result=0.979
compound=O=C(CCCN1CCC(O)(c2ccc(Cl)cc2)CC1)c1ccc(F)cc1 result=0.994
compound=COc1ccc(-c2cc(=O)c3c(O)cc(O)cc3o2)cc1O result=0.988
compound="CCCCC(=O)O[C@]1(C(=O)CO)[C@@H](C)CC2C3CCC4=CC(=O)C=C[C@]4(C)[C@@]3(F)C(O)C[C@@]21C (stereo not given in full)" result=1.01
compound="CC(=O)[C@@]1(O)CCC2C3C=C(Cl)C4=CC(=O)[C@@H]5CC5[C@]4(C)C3CC[C@@]21C (stereo not given in full)" result=1.01
compound=COc1ccc(-c2cc(=O)c3c(O)cc(O)c(-c4cc(-c5cc(=O)c6c(O)cc(O)cc6o5)ccc4OC)c3o2)cc1 result=1.01
compound=CC1(C)[C@@H]2CC[C@@]1(C)C(=O)C2 result=1.01
compound=COC(=O)[C@H]1[C@H]2C[C@H]3c4[nH]c5cc(OC)ccc5c4CCN3C[C@H]2C[C@@H](OC(=O)c2cc(OC)c(OC)c(OC)c2)[C@@H]1OC result=1.01
compound=NC[C@H]1O[C@H](O[C@H]2[C@H](O)[C@@H](O[C@H]3O[C@H](CO)[C@@H](O)[C@H](N)[C@H]3O)[C@H](N)C[C@@H]2N)[C@H](N)[C@@H](O)[C@@H]1O result=0.991
compound=COC1=CC(=O)C=C(OC)C1=O result=0.987
compound=CC(C)Nc1nc(Cl)nc(NC(C)C)n1 result=1.01
compound=COc1cc(C)c2c(=O)c3c(O)cc(OC)cc3oc2c1 result=0.985
